src = paper PMC9482650

Biological target: Inadl_3, Q8NI35
Sequence (Q8NI35 359-469): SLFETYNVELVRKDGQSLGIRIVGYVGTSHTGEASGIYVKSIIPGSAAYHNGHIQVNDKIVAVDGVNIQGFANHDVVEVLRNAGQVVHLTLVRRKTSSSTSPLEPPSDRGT
Experiment: holdup assay
Set-up: key: below the threshold = too weak to quantify, mostly under pKd 3.1 to 4
Conditions: plain residues with an end cap or a label only (N-terminal biotin on a linker: ado-ado)
measured-quantity: pKd

Some solved entries appear below for comparison.
>>> reported_value("LRSPRTPSEV [OR10G3, Q8NGC4]")
"below the threshold"
>>> reported_value("PDGQCTVTEV [RNF146, Q9NTX7]")
4.11
>>> reported_value("KKAPTNEFYA [SDC4, P31431]")
"below the threshold"
>>> reported_value("VRNLPESEEL [MYOZ3, Q8TDC0]")
"below the threshold"
>>> reported_value("TSQESEDTYL [TBC1D10A, Q9BXI6]")
"below the threshold"
>>> reported_value("VYPNAKVELV [PDLIM4_iso2, P50479]")
3.54
>>> reported_value("AKPSRISTVV [IQSEC2, Q5JU85]")
3.73
>>> reported_value("SKENVQETQI [LRRC4B, Q9NT99]")
"below the threshold"

Lab book: pKd of PEYLGLDVPV [ERBB2, P04626] noted as 3.48

pKd reported for this binder PLSPEQPTKL [TRIM50, Q86XT4] : below the threshold

Form field pKd, entry EKKTLIGIKL [GOT1L1, Q8NHS2] : below the threshold

pKd reading for PRISRSQSEL [CCDC134, Q9H6E4] : below the threshold

// pKd lookup, binder = QGLAERISVL [PRKD2, Q9BZL6] , result: 3.64

Entry under test: TASPAKETSF [SLC2A7, Q6PXP3] . Its pKd was below the threshold

QKNRKAQEDL [CES3, Q6UWW8] yielded pKd of below the threshold

Entry under test: TLPRKRMSSI [GPRC6A, Q5T6X5] . Its pKd was below the threshold
